# tested_target: T1, human bone morphogenic protein 2 (BMP2) (human, UniProt P12643 283-396, Disulfide-linked homodimer of this chain (non-reduced band of about 36 kDa, monomers of 17-18 kDa); one copy is given.)
# T1 construct: Bought recombinant human BMP2 (R&D Systems or Medtronic); also called recombinant human BMP2
# T1 sequence (P12643 283-396 limits assumed): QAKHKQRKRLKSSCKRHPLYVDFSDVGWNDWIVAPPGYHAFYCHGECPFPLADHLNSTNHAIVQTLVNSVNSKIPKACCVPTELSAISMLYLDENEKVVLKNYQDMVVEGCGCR
# assay: SPR (Biacore); mAb captured via anti-human Fc, BMP flowed at 10 nM

binder: 33F7 human monoclonal antibody (antibody, V domains shown, Human IgG from a HuMAb/KM mouse hybridoma) VH: QVQLVQSGAEVKKPGSSVKVSCKASGGTFSSYAINWVRQAPGQGLEWMGRLIPILGIANYAQKFQGRVTITADKSTSTAYMELSSLRSEDTAVYYCARGKDIWGQGTMVTVSS VL: EIVLTQSPGTLSLSPGERVTLSCRASQSVSSNYLAWYQQKPGQAPRLLIKGASSRATGIPDRFSGSGSGTDFTLTISRLEPEDFAVYYCQQYGSSPCTFGQGTKLEIK
scale_unit: M⁻¹ s⁻¹
kon: 5.71e+06
//
binder: 7D6 human monoclonal antibody (antibody, V domains shown, Human IgG from a HuMAb/KM mouse hybridoma) VH: QVQLVQSGAEVKKPGSSVKVSCKASGGTFSSYAISWVRQAPGQGLEWMGRIIPILGIVNYAQKFQGRVTITADKSTSTAYMELSSLRSEDTAVYYCARGKDIWGQGTMVTVSS VL: EIVLTQSPGTLSLSPGERATLSCRASQIVISTYLAWYQQKPGQAPRLLIYGASSRATGIPDRFSGSGSGTDFTLTISRLEPEDFAVYYCQQYGSSPCTFGQGTKLEIK
scale_unit: M⁻¹ s⁻¹
kon: 4e+06
//
binder: 6H4 human monoclonal antibody (antibody, V domains shown, Human IgG from a HuMAb/KM mouse hybridoma) VH: QVHLQQWGAGLLKPSETLSLTCAVYGGSFSGYYWSWIRQPPGKGLEWIGEINHSGSTNYNPSLKSRVTISVDTSKNQFSLKLSSVTAADTAVYYCAREYYYGSESEYFQHWGQGTLVTVSS VL: EIVLTQSPATLSLSPGERATLSCRASQSVSSYLAWYQQKPGQAPRLLIYDASNRATGIPARFSGSGSGTDFTLTISSLEPEDFAVYYCQQRSNWPHTFGQGTKLEIK
scale_unit: M⁻¹ s⁻¹
kon: 1.42e+06
